Target: Human NPY5 Receptor (Homo sapiens)
Sequence (Q15761 1-445): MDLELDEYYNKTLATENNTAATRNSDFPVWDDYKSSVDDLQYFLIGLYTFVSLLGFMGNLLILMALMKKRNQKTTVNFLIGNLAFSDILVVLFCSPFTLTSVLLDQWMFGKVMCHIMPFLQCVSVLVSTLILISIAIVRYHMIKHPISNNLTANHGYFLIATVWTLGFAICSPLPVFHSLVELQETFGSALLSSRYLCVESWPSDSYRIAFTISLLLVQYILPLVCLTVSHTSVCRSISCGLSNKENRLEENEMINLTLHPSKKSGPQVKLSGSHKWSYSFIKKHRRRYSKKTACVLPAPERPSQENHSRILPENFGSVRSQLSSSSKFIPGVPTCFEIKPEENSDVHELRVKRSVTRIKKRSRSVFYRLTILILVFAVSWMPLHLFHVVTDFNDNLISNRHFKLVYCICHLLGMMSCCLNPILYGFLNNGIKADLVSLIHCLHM
Test: Human NPY5 Receptor Binding Assay
Settings: [125I]PYY; read-out: hNPY5 IC50
Measured Property: IC50

Please look up its IC50: Cn1c(CN2C(=O)CSc3ccc(C(F)(F)F)cc32)nnc1SCC(=O)Nc1ccccc1 [Compound 152, reference compound]
> 10 µM

Please look up its IC50: O=C(CSc1nc2cc([N+](=O)[O-])ccc2[nH]1)Nc1ccc(C(=O)c2ccccc2)cc1 [Compound 18]
0.2 µM

Please look up its IC50: Nc1cc(N)nc(SCC(=O)Nc2ccc(C3CCCCC3)cc2)n1 [Compound 76]
> 1 µM

Please look up its IC50: COC(Cn1c(SCC(=O)Nc2ccc(C(C)C)cc2)nnc1-c1ccc(Cl)cc1)OC [Compound 166, reference compound]
> 10 µM

Please look up its IC50: O=C(CSc1nnnn1-c1ccc(O)cc1)Nc1ccc(C(=O)c2ccccc2)cc1 [Compound 87]
0.1 µM

Please look up its IC50: Cc1nnc(SCC(=O)Nc2ccc(C3CCCCC3)cc2)s1 [Compound 91]
0.08 µM

Please look up its IC50: O=C(CSC1=NCCN1)Nc1ccc(Cl)cc1 [Compound 187, reference compound]
> 10 µM

Please look up its IC50: Cn1ccnc1SCC(=O)Nc1ccc(I)cc1 [Compound 145, reference compound]
> 10 µM

---

Target: Rat NPY5 Receptor (Rattus norvegicus)
Sequence (Q63634 1-445): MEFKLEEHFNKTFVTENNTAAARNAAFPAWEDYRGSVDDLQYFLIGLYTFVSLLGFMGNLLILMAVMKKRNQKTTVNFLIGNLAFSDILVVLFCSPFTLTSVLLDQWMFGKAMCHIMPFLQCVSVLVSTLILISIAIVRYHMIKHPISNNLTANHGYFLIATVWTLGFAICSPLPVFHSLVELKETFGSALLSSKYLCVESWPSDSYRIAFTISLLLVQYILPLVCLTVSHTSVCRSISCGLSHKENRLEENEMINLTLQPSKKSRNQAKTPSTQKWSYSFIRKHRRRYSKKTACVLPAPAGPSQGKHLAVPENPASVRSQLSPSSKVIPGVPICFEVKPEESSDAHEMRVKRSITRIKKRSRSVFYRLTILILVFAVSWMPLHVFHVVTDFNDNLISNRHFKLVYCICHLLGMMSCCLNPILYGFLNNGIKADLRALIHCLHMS
Experiment: Rat NPY5 Receptor Binding Assay
Conditions: [125I]PYY; read-out: rNPY5 IC50
pIC50: −log10 of the molar value. Structures can show the parent of a compound that is named as a salt.
Measured Property: pIC50

Please look up its pIC50: Cc1ccnc(SCC(=O)Nc2ccc(C3CCCCC3)cc2)n1 [Compound 5, Hydrochloride]
< 6.00

Please look up its pIC50: CCn1c(SCC(=O)Nc2cc(C)ccc2OC)nnc1C(F)(F)F [Compound 157, reference compound]
< 5.00

Please look up its pIC50: `Nc1ccc(SCC(=O)Nc2ccc(C(=O)c3ccccc3)cc2)cc1`
< 6.00

Please look up its pIC50: `Cn1nnnc1SCC(=O)Nc1nc2ccccc2s1`
< 6.00

Please look up its pIC50: `Cn1nnnc1SCC(=O)NCCc1cccs1`
< 6.00

Please look up its pIC50: `CSc1ccc(SCC(=O)Nc2ccc(C(=O)c3ccccc3)cc2)cc1`
< 6.00

Please look up its pIC50: COC(Cn1c(SCC(=O)Nc2ccc(C(C)C)cc2)nnc1-c1ccc(Cl)cc1)OC [Compound 166, reference compound]
< 5.00

Please look up its pIC50: `Cc1nc(SCC(=O)Nc2ccc(C(=O)c3ccccc3)cc2)n[nH]1`
< 6.00

Please look up its pIC50: Cn1cnnc1SCC(=O)Nc1ccc(F)cc1 [Compound 170, reference compound]
< 5.00

Please look up its pIC50: COC(Cn1c(SCC(=O)Nc2ccc(Cl)cc2)nnc1-c1ccccc1)OC [Compound 162, reference compound]
< 5.00
